Hello, the source for this data is PubChem BioAssay AID1159580, in case you need it.

- experiment-description: chemical genetic growth profiling, strain panel (AID 1159580);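 further: tested at 20 µM; growth read once vehicle control cultures reached saturation at 30 °C; 1 = growth at the plate median or of vehicle wells; lower values mean less growth of the strain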
- experimental-setup: S. cerevisiae deletion strains, growth OD, locus YGR135W, strain pre9
About 2,000 (36%) of roughly 5,500 compounds were called active. Roughly 18% stayed inconclusive and do not appear here. No stated cut-off is given here; in the data, active means normalized growth mostly below about 0.91 (no sharp cut-off); inconclusive means no clear call, values can overlap the other calls; inactive means mostly above about 0.92. This is one part of the list.
Allowed answers: 1 (active), -1 (inactive)

Field: example entries. Status: answers known.
CCC1OC(=O)[C@H](C)C(=O)[C@H](C)[C@@H](OC2O[C@H](C)C[C@H](N(C)C)[C@H]2O)[C@](C)(OC)C2(CCCn3cnc(-c4cccnc4)c3)C[C@@H](C)C(=O)[C@H](C)[C@H]3N(C2)C(=O)O[C@]13C (some centres undefined) :: -1
Cc1cc(C2CCCCC2)n(O)c(=O)c1 :: 1
CC(C)(C)NCC(O)c1cc(O)cc(O)c1 (centres undefined) :: -1

(Q) Record lookup: outcome of this test for CC1=CC(=O)C2=C(C)CC[C@@H]3[C@H](OC(=O)[C@H]3C)[C@@H]12 ?
(A) -1

(Q) Query: recorded result category for CC(C)C1COc2cc3oc(=O)ccc3cc2O1 (centres undefined) in this test
(A) 1

(Q) Answer briefly: the call reported for CC(C)(O)[C@@H]1Cc2cc3ccc(=O)oc3cc2O1 in this assay.
(A) -1

(Q) What was the test verdict on NC(=O)NCCCC(N)C(=O)O (centres undefined) ?
(A) -1

(Q) What classification did C=C[C@H]1CN2CC[C@H]1C[C@@H]2[C@@H](OC(=O)OCC)c1ccnc2ccc(OC)cc12 end up with in this test?
(A) -1

(Q) Which outcome was assigned to Cc1[nH]ccc2c1[nH]c1cc(=O)ccc12 in this test?
(A) -1

(Q) Given NC(=O)CN1CCCC1=O , state the outcome it received in this test.
(A) -1

(Q) Record request — test call for CCCCCCCCCCCCCCCCCC(=O)OC(CC(=O)O)C[N+](C)(C)C (centres undefined)
(A) 1

(Q) Please indicate how the test categorized CC(C)[N+](C)(CCC(C(N)=O)(c1ccccc1)c1ccccc1)C(C)C .
(A) -1

(Q) Recorded call for CCOC(=O)NC1=C(C2CC2)C(=O)C(NC(=O)OCC)=C(C2CC2)C1=O ?
(A) -1

(Q) Call for entry COc1cccc2c(C)cc(=O)[nH]c12 :
(A) 1
